METHOD: physchem
PROTOCOL CONDITIONS: pKa (first of two printed values)
MEASUREMENT NAME: pKa

{"SMILES STR": "C[Si]1(C)C2=CC(=O)C=CC2=C(c2ccccc2C(=O)O)c2ccc(O)cc21", "NUMBER": 8.3}
